In this section we review reported Kd values for a set of compounds.
Target: Beta-secretase 1 (Homo sapiens, UniProt P56817)
Sequence (P56817 whole entry): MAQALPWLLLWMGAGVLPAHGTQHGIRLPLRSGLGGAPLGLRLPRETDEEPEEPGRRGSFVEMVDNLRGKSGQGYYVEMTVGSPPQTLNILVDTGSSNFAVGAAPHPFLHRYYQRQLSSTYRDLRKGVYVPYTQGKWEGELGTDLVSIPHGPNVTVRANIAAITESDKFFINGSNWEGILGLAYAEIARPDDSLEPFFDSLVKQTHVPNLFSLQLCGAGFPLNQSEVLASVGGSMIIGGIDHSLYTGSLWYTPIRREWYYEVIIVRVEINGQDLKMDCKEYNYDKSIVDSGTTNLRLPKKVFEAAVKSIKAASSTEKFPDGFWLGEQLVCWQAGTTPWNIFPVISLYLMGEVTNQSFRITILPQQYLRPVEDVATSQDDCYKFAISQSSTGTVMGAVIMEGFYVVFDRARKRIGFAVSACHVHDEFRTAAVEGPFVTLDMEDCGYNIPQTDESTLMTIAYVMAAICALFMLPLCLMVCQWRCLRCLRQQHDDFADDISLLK
Test: Binding affinity to BACE1 by surface plasmon resonance method
Please give a number only; it is taken to be in µM.

Here is how some compounds turned out for Kd.
# smiles_representation, Kd, µM
records = [
    ("Nc1ccc2cc(C(F)(F)F)ccc2n1", 3900),
    ("Nc1ccc2cc(-c3ccccc3C(F)(F)F)ccc2n1", 200),
    ("Cc1cc(N)nc2ccccc12", 1300),
    ("Cc1ccc2nc(N)ccc2c1", 1600),
    ("Nc1cc(C(F)(F)F)c2ccccc2n1", 2900),
]

Input: Retrieve Kd on Beta-secretase 1 (Homo sapiens, UniProt P56817); query `Nc1ccc2cc(F)ccc2n1`
Output: 1280

Input: Name the recorded Kd of `Nc1ccc2cc(-c3ccccc3F)ccc2n1` , assay system Beta-secretase 1 (Homo sapiens, UniProt P56817).
Output: 39

Input: Recall the reported Kd of `NC1=Nc2ccccc2Sc2cccc(F)c21` on Beta-secretase 1 (Homo sapiens, UniProt P56817) and write it down.
Output: 325

Input: Look up and report Kd, with Beta-secretase 1 (Homo sapiens, UniProt P56817) as system, for `N=C(N)SCc1c(F)cccc1Cl`
Output: 300

----------
Target: Beta-secretase 1 (Homo sapiens)
Test: Binding affinity to BACE1 by NMR-based differential chemical shift perturbation method
parameter: Kd (µM)
Your answer should be a plain number; it is taken to be in µM.

# smiles_representation, value_measured
rows = [
    ("N=C(N)SCc1c(F)cccc1Cl", 350),
    ("Nc1ccc2cc(F)ccc2n1", 1000),
    ("Nc1ccc2cc(-c3ccccc3C(F)(F)F)ccc2n1", 200),
]

Turning to the following molecule.
Input: Report Kd for `NC1=Nc2ccccc2Sc2cccc(F)c21`
Output: 400

----------
Target: Beta-secretase 1 (Homo sapiens, UniProt P56817)
Experiment: Binding affinity to BACE1 by NMR-based differential chemical shift perturbation method
parameter: Kd

Answered cases to consult:
# compound, Kd
rows = [
    ("Fc1cccc(C2NCCc3sccc32)c1 (racemic)", "> 1 mM"),
    ("Fc1cccc(Cl)c1CN1CCNCC1", "> 1 mM"),
]

Please find the next compound below.
Input: Fill in Kd for record `O=C(NC1CCCCC1)C(F)(F)F`
Output: > 1 mM
